- Tested on: MS2 coat protein
- assay_remarks: apparent KD of MS2 coat protein; higher = weaker reporter binding
- settings: Eterna round: R107; input ligand: theophylline 20 uM
measure_name: apparent KD of MS2 coat protein
Don't forget the unit after the number, please.

Query: Item under review: GAUAUAUACUCGGCCGCCACUGAGAGAGUCAUGUAAACAUGAGGAUCACCCAUGUAAUAUAUAUACAGGACCGGGAGUAUAUUAA [4.C] . Reported apparent KD of MS2 coat protein?
Reply: 16.1 nM

Query: What value of measured apparent KD of MS2 coat protein is listed for AUGACUAACAAAGAAGAUAAAAUGGGUGAACGAGGACCGGUACGGCCGCCACUCGGACAUGAGGAUCACCCAUGUCCAUGUGCAA [#23 Exclusion Tryptophan A] ?
Reply: 21.7 nM

Query: Quick one: apparent KD of MS2 coat protein of CCCUGGGUGGGAAGGAGCGCAUAUUCAACAUGAGGAUCACCCAUGUACAGACGUGAGUCAUUGCAGGUAGGUCGCCCACCCAGGG [SS-ArgB21] ?
Reply: 20.4 nM

Cited source for all entries: the supplement of paper PMC9170038
